- Test system: MOLM-13 cells
- Assay Comment: MOLM-13 Cell Proliferation Assay (indicator of DHODH inhibition)
- Assay type: cell-based
- Cond: Homo sapiens, 72 Hours of culture, CellTiter-Glo, no uridine
- Protocol: The following assay was conducted to measure proliferation of MOLM-13 cells in the presence of each compound studied. […] On day 1, Log-phase growing Molm-13 Cells were counted and diluted to 10^5 cells/mL in RPMI 1640 medium+10% FBS • 3. […] The plates were then read by ViewLux (Speed-fast, Gain-High, Bining-1X, 5 seconds).
pIC50 listing for selected compounds.
As a rule, pIC50 stands for the negative log10 of the concentration, concentration in M.

Ask: Which measured pIC50 value corresponds to Oc1cccc(C2c3[nH]c4ccc(Cl)cc4c3CCN2c2nccc(C(F)(F)F)n2)c1F (centres unmarked) ?
Reply: 8.44

Ask: Which measured pIC50 value corresponds to Cc1nc(N2CCc3c([nH]c4ccc(Cl)c(F)c34)C2c2ccc(/C=C/CCO)cc2)ncc1F (centres unmarked) ?
Reply: 8.47

Ask: Which measured pIC50 value corresponds to Cc1ccc([C@H]2c3[nH]c4ccc(Cl)cc4c3CCN2c2nc(N3CCN(C)CC3)nc(C(F)(F)F)n2)c(F)c1F ?
Reply: 8.96

Ask: Which measured pIC50 value corresponds to Cc1ccc([C@H]2c3[nH]c4ccc(Cl)cc4c3CCN2c2ncc(F)c(C)n2)cc1 ?
Reply: 8.31

====

IC50 listing for selected molecules.
- System: MOLM-13 cells
- Assay Comment: MOLM-13 Cell Proliferation Assay (indicator of DHODH inhibition)
- Format: cell-based
- Cond: Homo sapiens, 72 Hours of culture, CellTiter-Glo, no uridine
Quick note: give the figure in nM, leave out the unit.

Here are 3 molecules together with their reported answers.
FC(F)c1nc(N2CCc3c([nH]c4ccc(Cl)cc34)[C@@H]2c2cnc(N3CCOCC3)nc2)nc(C(F)(F)F)n1 [Compound 507]: 0.6
Fc1cc2[nH]c3c(c2cc1Cl)CCN(c1nc(C(F)(F)F)cc(C(F)(F)F)n1)C3c1cccc(F)c1F (centres unmarked) [Compound 157]: 0.6
Fc1cnc(N2CCc3c([nH]c4cc(F)c(Cl)cc34)C2c2ccc(C(F)(F)F)cc2)nc1 (centres unmarked) [Compound 35]: 43.2

Ask: Which measured IC50 value corresponds to Cc1nc(C)nc(N2CCc3c([nH]c4ccc(Cl)cc34)C2c2ccc(N3CCOCC3)nc2F)n1 (centres unmarked) [Compound 459] ?
Reply: 3

Ask: Which measured IC50 value corresponds to Cc1ccnc(N2CCc3c([nH]c4cc(F)c(Cl)cc34)C2c2ccc(C#N)cc2)n1 (centres unmarked) [Compound 61] ?
Reply: 35.2

Ask: Which measured IC50 value corresponds to Cc1ccc([C@H]2c3[nH]c4ccc(Cl)cc4c3CCN2c2nc(N)nc(C(F)(F)F)n2)cc1 [Compound 426] ?
Reply: 65

Ask: Which measured IC50 value corresponds to CN1CCN(c2ncc([C@H]3c4[nH]c5ccc(-n6nccn6)cc5c4CCN3c3nc(C(F)(F)F)cc(C(F)(F)F)n3)cn2)CC1 [Compound 500] ?
Reply: 0.8

====

pIC50 listing for selected molecules.
- Tested on: MOLM-13 cells
- Assay Comment: MOLM-13 Cell Proliferation Assay (indicator of DHODH inhibition)
- Type: cell-based
- Cond: Homo sapiens, 72 Hours of culture, CellTiter-Glo, no uridine
As a rule, pIC50 stands for the negative log10 of the concentration, concentration in M.

Here are 3 molecules together with their reported answers.
Cc1cccc(C2c3[nH]c4ccc(Cl)cc4c3CCN2c2nccc(C(F)(F)F)n2)c1F (centres unmarked) [Compound 259]: 9.00
Nc1cc2[nH]c3c(c2cc1Cl)CCN(c1nccc(C(F)(F)F)n1)C3c1cnc(N2CCOCC2)nc1 (centres unmarked) [Compound 311]: 8.68
Cc1nc(C)nc(N2CCc3c([nH]c4ccc(Cl)cc34)C2c2ccc(F)cc2F)n1 (centres unmarked) [Compound 451]: 8.10

Ask: Which measured pIC50 value corresponds to Cc1ccc(C2c3[nH]c4ccc(-n5nccn5)cc4c3CCN2c2nccc(C(F)(F)F)n2)cc1 (centres unmarked) [Compound 287] ?
Reply: 8.54

Ask: Which measured pIC50 value corresponds to Cc1nc(C)nc(N2CCc3c([nH]c4ccc(Cl)cc34)C2c2ccc(F)cc2)n1 (centres unmarked) [Compound 450] ?
Reply: 7.53

====

- System: MOLM-13 cells
- Assay Comment: MOLM-13 Cell Proliferation Assay (indicator of DHODH inhibition)
- Format: cell-based
- Cond: Homo sapiens, 72 Hours of culture, CellTiter-Glo, no uridine
Labelling: IC50 reported below 8 nM becomes true (1); at or above becomes false (0).

Field: example entries. Status: answers known.
Cc1cc(C)nc(N2CCc3c([nH]c4cc(F)c(Cl)cc34)C2c2ccc(C#N)cc2)n1 (centres unmarked): false (0)
CC(C)c1ccc(C2c3[nH]c4cc(F)c(Cl)cc4c3CCN2c2nccc(Cl)n2)cc1 (centres unmarked): true (1)
Cc1ccc([C@H]2c3[nH]c4ccc(-n5nccn5)cc4c3CCN2c2nc(C(F)(F)F)nc(C(F)(F)F)n2)c(F)c1F: true (1)
Cc1ccc(C2c3[nH]c4c(N)cc(Cl)cc4c3CCN2c2nc(C)nc(C)n2)cc1 (centres unmarked): false (0)
COc1ccc2[nH]c3c(c2c1)CCN(c1nc(C(F)(F)F)cc(C(F)(F)F)n1)[C@H]3c1ccc(C)c(F)c1F: true (1)

Ask: Dear reviewer, please state whether Cc1ccc(C2c3[nH]c4ccc(F)cc4c3CCN2c2nc(C(F)(F)F)nc(C(F)(F)F)n2)c(F)c1F (centres unmarked) has IC50 strictly beneath 8 nM.
Reply: true (1)

====

pIC50 listing for selected compounds.
- Test system: MOLM-13 cells
- Assay Comment: MOLM-13 Cell Proliferation Assay (indicator of DHODH inhibition)
- Assay type: cell-based
- Cond: Homo sapiens, 72 Hours of culture, CellTiter-Glo, no uridine
- Description: The following assay was conducted to measure proliferation of MOLM-13 cells in the presence of each compound studied. […] On day 1, Log-phase growing Molm-13 Cells were counted and diluted to 10^5 cells/mL in RPMI 1640 medium+10% FBS • 3. […] The plates were then read by ViewLux (Speed-fast, Gain-High, Bining-1X, 5 seconds).
As a rule, pIC50 stands for the negative log10 of the concentration, concentration in M.

Here are 2 compounds together with their reported answers.
FC(F)(F)c1ccnc(N2CCc3c([nH]c4ccc(Cl)cc34)C2c2ccc(-n3ccnc3)cc2)n1 (stereo not drawn): 8.20
Cc1ccc([C@H]2c3[nH]c4ccc(Cl)cc4c3CCN2c2ncc(F)c(C#N)n2)cc1: 8.51

Continue with the next compound.
Ask: Which measured pIC50 value corresponds to Fc1ccc(C2c3[nH]c4cc(F)c(Cl)cc4c3CCN2c2nccc(Cl)n2)cc1 (stereo not drawn) ?
Reply: 7.49

====

pIC50 listing for selected compounds.
- Test system: MOLM-13 cells
- Assay Comment: MOLM-13 Cell Proliferation Assay (indicator of DHODH inhibition)
- Assay type: cell-based
- Cond: Homo sapiens, 72 Hours of culture, CellTiter-Glo, no uridine
As a rule, pIC50 stands for the negative log10 of the concentration, concentration in M.

Here are 6 compounds together with their reported answers.
Cc1ccc(C2c3[nH]c4ccc(Cl)c(F)c4c3CCN2c2ncc(C)cn2)cc1 (stereo not shown): 7.99
Cc1ccc(C2c3[nH]c4cc(F)c(Cl)cc4c3CCN2c2nc(C)c(F)c(C)n2)cc1 (stereo not shown): 8.13
FC(F)(F)c1ncnc(N2CCc3c([nH]c4ccc(Cl)cc34)[C@@H]2c2cnc(N3CCOCC3)nc2)n1: 8.89
Fc1c(Cl)ccc2[nH]c3c(c12)CCN(c1nccc(C(F)(F)F)n1)C3c1ccc(Cl)cc1 (stereo not shown): 8.39
Cc1ccnc(N2CCc3c([nH]c4ccc(Cl)cc34)[C@@H]2c2ccc(C)c(F)c2F)n1: 9.10
Cc1cc(C)nc(N2CCc3c([nH]c4cc(F)c(Cl)cc34)C2c2cccc(F)c2F)n1 (stereo not shown): 8.12

Continue with the next compound.
Ask: Item Cc1cc(C(F)(F)F)nc(N2CCc3c([nH]c4ccc(Cl)cc34)[C@H]2c2ccc(C)c(F)c2F)n1 with MOLM-13 cells - pIC50?
Reply: 7.40

====

- Test system: MOLM-13 cells
- Assay Comment: MOLM-13 Cell Proliferation Assay (indicator of DHODH inhibition)
- Format: cell-based
- Cond: Homo sapiens, 72 Hours of culture, CellTiter-Glo, no uridine
pIC50 listing for selected compounds.
As a rule, pIC50 stands for the negative log10 of the concentration, concentration in M.

Here are 2 compounds together with their reported answers.
Cc1ccnc(N2CCc3c([nH]c4cc(F)c(Cl)cc34)C2c2ccc(C(F)(F)F)cc2)n1 (stereo not drawn) [Compound 81]: 7.40
COCCOc1ncc([C@H]2c3[nH]c4ccc(Cl)cc4c3CCN2c2nc(C(F)(F)F)nc(C(F)(F)F)n2)cn1 [Compound 534]: 9.10

Continue with the next compound.
Ask: Which measured pIC50 value corresponds to Cc1ccc(C2c3[nH]c4cc(F)c(Cl)cc4c3CCN2c2nc(C)cc(C#N)n2)cc1 (stereo not drawn) [Compound 151] ?
Reply: 8.35

Data provenance: patent US20250186437A1
